# TARGET: Fatty-acid amide hydrolase 1 (Homo sapiens)
# Sequence (O00519 whole entry): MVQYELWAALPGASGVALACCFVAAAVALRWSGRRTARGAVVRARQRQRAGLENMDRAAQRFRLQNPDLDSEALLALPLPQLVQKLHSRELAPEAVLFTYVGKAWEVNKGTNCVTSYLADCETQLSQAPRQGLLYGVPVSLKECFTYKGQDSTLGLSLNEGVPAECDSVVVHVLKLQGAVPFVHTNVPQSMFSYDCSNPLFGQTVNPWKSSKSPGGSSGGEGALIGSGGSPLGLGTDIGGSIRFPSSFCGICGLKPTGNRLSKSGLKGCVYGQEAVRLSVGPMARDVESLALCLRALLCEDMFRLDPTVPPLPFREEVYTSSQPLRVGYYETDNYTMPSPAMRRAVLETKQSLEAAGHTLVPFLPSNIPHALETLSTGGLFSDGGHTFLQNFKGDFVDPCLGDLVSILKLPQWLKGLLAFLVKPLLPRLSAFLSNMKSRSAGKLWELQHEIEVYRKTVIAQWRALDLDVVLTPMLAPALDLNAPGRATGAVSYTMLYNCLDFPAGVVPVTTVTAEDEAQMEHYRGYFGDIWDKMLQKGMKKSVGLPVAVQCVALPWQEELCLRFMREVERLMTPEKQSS
# merged literature set: IC50 with Fatty-acid amide hydrolase 1 (Homo sapiens)
READOUT: IC50 (µM)

O=C(N/N=C/c1ccc(Oc2ccccc2)cc1)c1nc2ccccc2[nH]1    7.2

1: O=C(N[C@H]1CC/C(=C/c2cccc(Oc3ccc(C(F)(F)F)cn3)c2)CC1)c1cccnc1 (stereo not given)
2: O=C(CCCCCCCc1ccccc1)c1nnc(-c2ccccn2)o1
3: O=C(CCCCCc1ccccc1)c1nc2ccccc2o1
Query block: Sort these molecules on IC50 so the largest reading comes first. # format: label list in the order the request specifies
Result block: 3, 1, 2
(3: 10 µM, 1: 0.414 µM, 2: 0.0006 µM)
